Entries and their measured melting point follow.

Example compounds with recorded melting point:
INSERT INTO measurements (compound, meas_value) VALUES
  ('CC(C)Cc1nc(-c2ccccc2)cnc1NN', '109 to 110 °C'),
  ('Cc1cc(Br)c2c(c1)/C(=N\NC(N)=O)C(=O)N2CCN(C(C)C)C(C)C', '189 to 192 °C'),
  ('CCOC(=O)c1cc(C(=O)OC)c(=O)oc1C', '94 to 96 °C'),
  ('O=C(O)Cc1cc(-c2ccc(Cl)cc2)n(-c2ccc(OCc3ccc4ccccc4n3)cc2)n1', '228 to 230 °C'),
  ('O=C(CCCCN1CCOCC1)c1ccc2c(c1)Cc1cc(C(=O)CCCCN3CCOCC3)ccc1-2', '134 to 136 °C');

Lookup result for CC(C)n1nc(-c2sc(NC(=O)c3c(Cl)cccc3Cl)nc2-c2ccccc2)ccc1=O ; measured melting point: 248 to 249 °C

Lookup result for CCNc1nc(NCC)nc(NCC)n1 ; measured melting point: 74 °C

Lookup result for CC[C@H]1CN(c2c(F)cc3c(=O)c(C(=O)O)cn([C@@H]4C[C@@H]4F)c3c2OC)C[C@H]1N ; measured melting point: 217 to 219 °C

Lookup result for CC(=O)CCc1ccc(C(N)=O)cc1 ; measured melting point: 152 to 154 °C

Lookup result for COc1ccc(-c2cc(=O)n(Cc3ccc(Cl)cc3Cl)nc2-c2ccc(OC)c(OC)c2)cc1 ; measured melting point: 119 to 120 °C

Lookup result for CS(=O)(=O)N1C[C@H](S)C[C@H]1COC(=O)Nc1ccccc1 ; measured melting point: 148 °C

Lookup result for Cc1nc2c(N)nc3ccccc3c2n1CCOCCNS(=O)(=O)C(C)C ; measured melting point: 172 to 175 °C

Lookup result for N#CC=Cc1ccc(Cc2ncc[nH]2)cc1 ; measured melting point: 118 to 120 °C

Lookup result for Clc1ccc(C=Cc2ccccc2)cc1Cl ; measured melting point: 87.7 °C

Lookup result for COC(=O)c1cc(C=O)c(NS(C)(=O)=O)c([N+](=O)[O-])c1 ; measured melting point: 158 to 160 °C

Lookup result for Cc1ccccc1C(=O)Nc1ccc(C(=O)N2CCCC(O)c3cc(Cl)ccc32)c(C)c1 (stereo unspecified) ; measured melting point: 224 to 226 °C

Lookup result for N=C(N)COc1cccc(Cl)c1Cl ; measured melting point: 104 to 108 °C

Lookup result for COC(=O)CCn1cc(C2=C(c3cn(C)c4ccccc34)C(=O)NC2=O)c2ccccc21 ; measured melting point: 209 to 211 °C

Lookup result for CC(C)(C)C(=O)OCC(CCn1cnc2c(=O)[nH]c(N)nc21)COC(=O)C(C)(C)C ; measured melting point: 225 to 237 °C

Lookup result for CC(C)C1NS(=O)(=O)N(CCl)C1=O (stereo unspecified) ; measured melting point: 71 to 72 °C

Lookup result for CCCc1nc2c(N)nc(C)c(C)c2n1CCOCc1ccccc1 ; measured melting point: 99.5 to 100 °C

Origin of the recorded values: a melting point compilation (Tetko et al.; mined from patent text by program, amines drawn as free bases though some values may be those of a salt)
